B1: library; a variant is named by its letters at N, in order (parent)
chain: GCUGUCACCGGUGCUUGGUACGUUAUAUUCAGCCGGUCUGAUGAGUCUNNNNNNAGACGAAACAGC

- Variants of: B1
- experimental.details: normalized RNA/DNA level with ligand (relative to sTRSVctl = 100) (log10 (% of sTRSVctl)); HEK293T overexpressing SLC46A1; ligand concentration (+) RNA-Seq: 6 mM; higher = less ribozyme self-cleavage, higher mRNA level
- study.conditions: with (6R,S)-folinic acid; ligand present: yes
Parameter threshold = 2. Response is 1 when normalized RNA/DNA level with ligand (log10) meets or exceeds it, else 0.

UCUGCU	1
CGCCGA	1
CGGGGA	1

Req: Form field: normalized RNA/DNA level with ligand (log10) at least 2? Entry: UAUAAG
Resp: 0

Req: Form field: normalized RNA/DNA level with ligand (log10) at least 2? Entry: CUUCGC
Resp: 1

Req: Form field: normalized RNA/DNA level with ligand (log10) at least 2? Entry: UUUUGC
Resp: 0

Req: Form field: normalized RNA/DNA level with ligand (log10) at least 2? Entry: CAUCUC
Resp: 1

Reference source: the supplement of paper PMC6757056
